Entry source: patent US12662524B2

test_system: AP C3-convertase (C3bBb) (Homo sapiens (Human)) (UniProt P01024)
# maps each entry to its AP-DAA
The reply should contain only the number, in fold.

Note AP-DAA for the binder shown: D2M2-4 (Y101N) (protein) CEVPTRLNSASLKQPYITQNYFPVGTVVEYECRPGYRREPSLSPKLTCLQNLKWSTAVEFCKKKSCPNIRDPLNGQAVPANGTYEFGYQMHFICNEGYYLIGEEILYCELKGSVAIWSGKPPICEKVLCTPPPKIKNGKHTFSEVEVFEYLDAVTYSCDPAPGPDPFSLIGESTIYCGDNSVWSRAAPECKVVKCRFPVVENGKQISGFGKKFYYKATVMFECDKGFYLDGSDTIVCDSNSTWDPPVPKCLKVL
7.2

Note AP-DAA for the binder shown: D2M2-4 (I134A) (protein) CEVPTRLNSASLKQPYITQNYFPVGTVVEYECRPGYRREPSLSPKLTCLQNLKWSTAVEFCKKKSCPYIRDPLNGQAVPANGTYEFGYQMHFICNEGYYLAGEEILYCELKGSVAIWSGKPPICEKVLCTPPPKIKNGKHTFSEVEVFEYLDAVTYSCDPAPGPDPFSLIGESTIYCGDNSVWSRAAPECKVVKCRFPVVENGKQISGFGKKFYYKATVMFECDKGFYLDGSDTIVCDSNSTWDPPVPKCLKVL
6.7

Note AP-DAA for the binder shown: D2M2-4 (L161K) (protein) CEVPTRLNSASLKQPYITQNYFPVGTVVEYECRPGYRREPSLSPKLTCLQNLKWSTAVEFCKKKSCPYIRDPLNGQAVPANGTYEFGYQMHFICNEGYYLIGEEILYCELKGSVAIWSGKPPICEKVKCTPPPKIKNGKHTFSEVEVFEYLDAVTYSCDPAPGPDPFSLIGESTIYCGDNSVWSRAAPECKVVKCRFPVVENGKQISGFGKKFYYKATVMFECDKGFYLDGSDTIVCDSNSTWDPPVPKCLKVL
3.4

Note AP-DAA for the binder shown: D2M2-4 (E136Q) (D2) (protein) CEVPTRLNSASLKQPYITQNYFPVGTVVEYECRPGYRRQPSLSPKLTCLQNLKWSTAVEFCKKKSCPYIRDPLNGQAVPANGTYEFGYQMHFICNEGYYLIGEEILYCELKGSVAIWSGKPPICEKVLCTPPPKIKNGKHTFSEVEVFEYLDAVTYSCDPAPGPDPFSLIGESTIYCGDNSVWSRAAPECKVVKCRFPVVENGKQISGFGKKFYYKATVMFECDKGFYLDGSDTIVCDSNSTWDPPVPKCLKVL
5.6
